Numbers sourced from paper PMC12647218.

Each entry below carries its recorded pKi.
assaySystem: Acetylcholinesterase from Electrophorus electricus (electric eel) (Electrophorus electricus)
protocolDetails: biochemical
pKi: −log10 of the molar value.

{"columns": ["sampleSmiles", "pKi"],
 "data": [
  ["COc1cccc2cc(/C(C)=N/NC(=O)c3ccccc3C)c(=O)oc12", 4.87],
  ["COc1cccc2cc(/C(C)=N/NC(=O)c3cccc4[nH]ccc34)c(=O)oc12", 4.68],
  ["COc1cccc2cc(/C(C)=N/NC(=O)Cn3ccc4cccnc43)c(=O)oc12", 4.80],
  ["COc1cccc2cc(/C(C)=N/NC(=O)c3ccco3)c(=O)oc12", 4.71],
  ["COc1cccc2cc(/C(C)=N/NC(=O)c3cccs3)c(=O)oc12", 4.84],
  ["COc1cccc2cc(/C(C)=N/NC(=O)c3ccccc3Cl)c(=O)oc12", 4.98],
  ["COc1cccc2cc(/C(C)=N/NC(=O)c3cccc(Cl)c3)c(=O)oc12", 4.59],
  ["COc1cccc2cc(/C(C)=N/NC(=O)c3ccc(F)cc3)c(=O)oc12", 5.10],
  ["COc1cccc2cc(/C(C)=N/NC(=O)c3ccccn3)c(=O)oc12", 5.15]
]}

###

Each entry below carries its recorded pIC50.
assaySystem: Acetylcholinesterase from Electrophorus electricus (electric eel) (Electrophorus electricus, UniProt O42275)
Sequence (O42275 24-633): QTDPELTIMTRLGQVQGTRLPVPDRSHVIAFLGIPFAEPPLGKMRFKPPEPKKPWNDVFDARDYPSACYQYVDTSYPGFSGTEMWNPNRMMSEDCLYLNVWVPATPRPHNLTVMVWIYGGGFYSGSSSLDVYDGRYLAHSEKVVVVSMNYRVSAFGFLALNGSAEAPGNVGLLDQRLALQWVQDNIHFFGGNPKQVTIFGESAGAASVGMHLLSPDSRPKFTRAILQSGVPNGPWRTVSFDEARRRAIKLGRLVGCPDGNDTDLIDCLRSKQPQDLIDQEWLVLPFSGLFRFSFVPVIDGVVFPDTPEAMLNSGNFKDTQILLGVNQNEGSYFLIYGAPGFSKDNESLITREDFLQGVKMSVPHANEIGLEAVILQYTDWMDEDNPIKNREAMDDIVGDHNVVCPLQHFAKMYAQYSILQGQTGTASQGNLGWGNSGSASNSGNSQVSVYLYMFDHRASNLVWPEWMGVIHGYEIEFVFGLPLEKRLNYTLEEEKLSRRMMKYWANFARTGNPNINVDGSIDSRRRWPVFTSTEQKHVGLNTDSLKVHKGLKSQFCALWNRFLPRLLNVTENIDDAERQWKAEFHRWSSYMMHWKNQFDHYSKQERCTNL
pIC50: −log10 of the molar value.
measuredEndpoint: pIC50

{"columns": ["sampleSmiles", "readoutNumber"],
 "data": [
  ["COc1cccc2cc(/C(C)=N/NC(=O)c3cccc(Cl)c3)c(=O)oc12", 4.39],
  ["COc1cccc2cc(/C(C)=N/NC(=O)c3cc4ccccc4cc3O)c(=O)oc12", 5.13],
  ["COc1cccc2cc(/C(C)=N/NC(=O)c3ccccc3Cl)c(=O)oc12", 4.83],
  ["COc1cccc2cc(/C(C)=N/NC(=O)c3cccc4[nH]ccc34)c(=O)oc12", 4.54],
  ["COc1cccc2cc(/C(C)=N/NC(=O)c3cccs3)c(=O)oc12", 4.66],
  ["COc1cccc2cc(/C(C)=N/NC(=O)c3ccc(C(F)(F)F)cc3)c(=O)oc12", 5.10],
  ["COc1cccc2cc(/C(C)=N/NC(=O)c3ccc(F)cc3)c(=O)oc12", 4.91],
  ["COc1cccc2cc(/C(C)=N/NC(=O)Cc3ccccc3)c(=O)oc12", 4.74],
  ["COc1cccc2cc(/C(C)=N/NC(=O)c3ccco3)c(=O)oc12", 4.62],
  ["COc1cccc2cc(/C(C)=N/NC(=O)c3ccccc3C)c(=O)oc12", 4.70],
  ["COc1cccc2cc(/C(C)=N/NC(=O)Cn3ccc4cccnc43)c(=O)oc12", 4.58],
  ["COc1cccc2cc(/C(C)=N/NC(=O)c3ccccc3Br)c(=O)oc12", 4.77],
  ["COc1cccc2cc(/C(C)=N/NC(=O)c3ccccn3)c(=O)oc12", 5.07]
]}

###

assaySystem: Butyrylcholinesterase from equine serum (Equus caballus)
Sequence (P81908 whole entry): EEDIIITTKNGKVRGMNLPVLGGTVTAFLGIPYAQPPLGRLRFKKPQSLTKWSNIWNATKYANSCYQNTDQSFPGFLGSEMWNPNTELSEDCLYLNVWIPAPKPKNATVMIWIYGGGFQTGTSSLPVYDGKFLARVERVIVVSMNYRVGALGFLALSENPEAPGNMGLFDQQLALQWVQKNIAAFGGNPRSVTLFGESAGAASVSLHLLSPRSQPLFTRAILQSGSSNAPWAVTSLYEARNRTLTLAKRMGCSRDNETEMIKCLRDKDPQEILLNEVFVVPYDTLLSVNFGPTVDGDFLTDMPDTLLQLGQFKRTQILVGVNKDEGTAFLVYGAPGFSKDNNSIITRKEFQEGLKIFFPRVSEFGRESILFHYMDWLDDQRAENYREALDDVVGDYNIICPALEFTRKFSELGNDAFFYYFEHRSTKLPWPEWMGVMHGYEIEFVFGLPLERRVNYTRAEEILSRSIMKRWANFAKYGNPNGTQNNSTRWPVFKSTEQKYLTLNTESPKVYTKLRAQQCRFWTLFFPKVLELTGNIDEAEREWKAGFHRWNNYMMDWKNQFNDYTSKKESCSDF
protocolDetails: BChE inhibition, modified colorimetric Ellman method
Threshold 70 µM: Ki strictly smaller gives y, otherwise n.

{"columns": ["sampleSmiles", "label"],
 "data": [
  ["COc1cccc2cc(/C(C)=N/NC(=O)c3ccc(C(F)(F)F)cc3)c(=O)oc12", "y"],
  ["COc1cccc2cc(/C(C)=N/NC(=O)c3cccc4[nH]ccc34)c(=O)oc12", "n"],
  ["COc1cccc2cc(/C(C)=N/NC(=O)c3ccc(F)cc3)c(=O)oc12", "y"],
  ["COc1cccc2cc(/C(C)=N/NC(=O)c3ccccc3Br)c(=O)oc12", "n"],
  ["COc1cccc2cc(/C(C)=N/NC(=O)c3cc4ccccc4cc3O)c(=O)oc12", "y"],
  ["COc1cccc2cc(/C(C)=N/NC(=O)Cn3ccc4cccnc43)c(=O)oc12", "n"],
  ["COc1cccc2cc(/C(C)=N/NC(=O)c3cccc(Cl)c3)c(=O)oc12", "n"],
  ["COc1cccc2cc(/C(C)=N/NC(=O)c3cccs3)c(=O)oc12", "n"]
]}
